Before we begin, note that these IC50 values for RNA-directed RNA polymerase (Hepacivirus hominis) originate from several publications.
Parameter: IC50 (µM)

> print(dat)
                               entry.smiles  parameter  measured
1  COc1cccc(Oc2ccc(C(=O)N(c3ncc(C(=O)O)s3)C3CCCCC3)cc2)c1       IC50       3.1

(I) Cc1cc(N)c(S(=O)(=O)N2CCC[C@H]2C(=O)O)cc1Cl
(II) CC(C)Oc1ccccc1Oc1ccc(/C=C(\NC(=O)c2ccccc2)C(=O)O)cc1
Req: Between item I and item II , which reported IC50 is smaller? Identify your selection by its label.
Resp: I

(I) O=C(Cc1ccc(I)cc1)N/C(=C\c1ccc(Oc2ccccc2Br)cc1)C(=O)O
(II) O=C(O)/C(=C/c1ccc(-c2ccccc2)o1)NC(=O)c1ccccc1
Req: Between item I and item II , which reported IC50 is smaller? Return value: the label identifying the chosen record.
Resp: I

(P) O=C(Nc1ccccc1O)/C(=C/c1ccc(Oc2ccccc2Br)cc1)NC(=O)c1ccccc1
(Q) O=C(O)/C(=C/c1ccc(Oc2ccccc2Br)cc1)NC(=O)c1ccc(Cl)cc1
Req: Hi, I'm comparing P with Q and wondering which one has the bigger number for IC50. Any idea? Please indicate the selected item by its label.
Resp: P
(P: 15 µM, Q: 0.11 µM)

(a) O=C(O)/C(=C/c1ccc(Oc2ccccc2-c2ccccc2)cc1)NC(=O)c1ccccc1
(b) CCc1ccccc1C(=O)N/C(=C\c1ccc(Oc2ccccc2Br)cc1)C(=O)O
(c) O=S(=O)(c1cc(Cl)cc(Cl)c1O)N1CCCC1
Req: // ascending sort on recorded IC50 Your reply should list the labels following the order given in the request.
Resp: b, c, a

(P) Cc1ccccc1Oc1ccc(/C=C(\NC(=O)c2ccccc2)C(=O)O)cc1
(Q) O=C(O)C(=O)/C=C(\O)c1ccsc1
Req: Compare reported IC50 values for P and Q . Which is lower? Selection: enter the item's label.
Resp: P

(a) O=C(O)C(=O)/C=C(\O)c1cccc(Oc2ccccc2)c1
(b) O=C(O)/C(=C/c1ccc(-c2ccccc2Cl)s1)NC(=O)c1ccccc1
Req: Decide: a or b , by lowest recorded IC50. Indicate your choice by writing its label.
Resp: b
(b: 0.66 µM, a: 19 µM)

(P) O=C(O)c1ccc2c(C3CCCCC3)c3n(c2c1)Cc1ccccc1-3
(Q) O=C(O)[C@H](Cc1ccccc1)N(Cc1ccccc1)C(=O)c1ccc(Cl)cc1Cl
(R) O=C(O)C(=O)/C=C(\O)c1cccn1Cc1ccc(O)cc1
(S) O=C(O)c1cnc(N(C(=O)c2ccc(Oc3ccc(Cl)cc3)cc2)C2CCCCC2)s1
Req: Sequence the entries by IC50, beginning with the highest number. Provide the ranking by listing each label in its place in the requested order.
Resp: R, Q, S, P

(I) O=c1ccn([C@@H]2O[C@H](COP(=O)(O)OP(=O)(O)OP(=O)(O)O)[C@@H](O)[C@]2(O)CF)c(=O)[nH]1
(II) O=C(NCCc1c[nH]c2ccc(O)cc12)c1ccc2c(c1)nc(-c1ccoc1)n2C1CCCCC1
(III) O=C(N[C@@H](Cc1ccccc1)C(=O)O)c1ccc2c(c1)nc(-c1ccoc1)n2C1CCCCC1
Req: Rank by IC50 (largest to smallest). // list labels; follow requested order
Resp: III, II, I
(III: 4 µM, II: 1.5 µM, I: 0.28 µM)
